Target or test system: Albumin (Homo sapiens)
Sequence (P02768 whole entry): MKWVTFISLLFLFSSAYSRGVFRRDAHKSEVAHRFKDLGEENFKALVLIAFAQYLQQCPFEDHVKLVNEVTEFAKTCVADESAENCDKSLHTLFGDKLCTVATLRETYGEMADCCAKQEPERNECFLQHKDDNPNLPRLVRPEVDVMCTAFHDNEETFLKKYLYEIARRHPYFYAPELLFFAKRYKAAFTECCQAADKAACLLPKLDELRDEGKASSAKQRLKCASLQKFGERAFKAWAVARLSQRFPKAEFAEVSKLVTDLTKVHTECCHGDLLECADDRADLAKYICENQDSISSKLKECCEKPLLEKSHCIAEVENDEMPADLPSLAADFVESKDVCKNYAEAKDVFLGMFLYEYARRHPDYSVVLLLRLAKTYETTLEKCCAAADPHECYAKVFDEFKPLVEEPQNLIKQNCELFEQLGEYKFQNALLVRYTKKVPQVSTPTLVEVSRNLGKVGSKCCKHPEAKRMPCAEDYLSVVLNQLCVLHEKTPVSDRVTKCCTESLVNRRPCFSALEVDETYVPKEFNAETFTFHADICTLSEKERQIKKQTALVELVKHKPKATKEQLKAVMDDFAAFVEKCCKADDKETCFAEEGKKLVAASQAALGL
Protocol details: Binding affinity to human serum albumin at 310K by Stern-Volmer plot method
Format: ADME
Reported conditions: isolated protein
Measurement label: Kq (×10¹⁴ /M/s)

> print(dat)
                                smiles.text  numeric.value
1  O=C(O)/C(O)=C/C(=O)c1cc(C2CCCCC2)ccc1C1CCCCC1           2.09

----------
Target or test system: Albumin (Homo sapiens)
Protocol details: Binding affinity to human serum albumin assessed as Gibbs free energy change at 293K by Van't Hoff plot method
Format: ADME
Reported conditions: isolated protein
Measurement label: deltaG

> print(dat)
                                smiles.text          result
1  O=C(O)/C(O)=C/C(=O)c1cc(C2CCCCC2)ccc1C1CCCCC1  -8.36 kcal/mol

----------
Tested on: Staphylococcus aureus
Protocol details: Antibacterial activity against Staphylococcus aureus EMRSA-15 after 16 hrs by microdilution method
Format: functional
Reported conditions: EMRSA-15, 16 h
Measurement label: MIC

> print(dat)
                                 smiles.text  measurement.label      result
 1     O=C(O)/C(O)=C/C(=O)c1cccc(C(F)(F)F)c1                MIC  > 128 mg/L
 2       COc1cc(C)c(C(=O)/C=C(\O)C(=O)O)cc1C                MIC  > 128 mg/L
 3   O=C(O)CCC(=O)c1cc(C2CCCCC2)ccc1C1CCCCC1                MIC       94 µM
 4     Cc1cc(C)c(C)c(C(=O)/C=C(\O)C(=O)O)c1C                MIC  > 128 mg/L
 5          CC(=O)c1cc(C2CCCCC2)ccc1C1CCCCC1                MIC      225 µM
 6     O=C(O)/C(O)=C/C(=O)c1ccc(-n2ccnc2)cc1                MIC  > 128 mg/L
 7          O=C(O)CCC(=O)c1ccc(-c2ccccc2)cc1                MIC  > 128 mg/L
 8              Cc1ccccc1C(=O)/C=C(\O)C(=O)O                MIC  > 128 mg/L
 9       O=C(O)/C(O)=C/C(=O)c1ccc2c(c1)CCCC2                MIC      520 µM
10  CC(C)c1cc(C(C)C)c(C(=O)/C=C(\O)C(=O)O)c(C(C)C)c1                MIC       25 µM
11   CCc1cc(CC)c(C(=O)/C=C(\O)C(=O)O)c(CC)c1                MIC      232 µM
12           COc1cccc(C(=O)/C=C(\O)C(=O)O)c1                MIC  > 128 mg/L
13        Cc1cc(C)c(C(=O)/C=C(\O)C(=O)O)cc1C                MIC  > 128 mg/L
14      O=C(O)/C(O)=C/C(=O)c1ccc(N2CCCC2)cc1                MIC  > 128 mg/L
15           O=C(O)/C(O)=C/C(=O)c1cccc(Br)c1                MIC  > 128 mg/L
16  CC(C)c1ccc(C(C)C)c(C(=O)/C=C(\O)C(=O)O)c1                MIC      232 µM
17  CN1CCN(c2ccc(C(=O)/C=C(\O)C(=O)O)cc2)CC1                MIC  > 128 mg/L
18     O=C(O)/C(O)=C/C(=O)c1ccc(N2CCOCC2)cc1                MIC  > 128 mg/L
19        CN(C)c1ccc(C(=O)/C=C(\O)C(=O)O)cc1                MIC  > 128 mg/L
20  CC(C)c1ccc(C(=O)/C=C(\O)C(=O)O)c(C(C)C)c1                MIC      232 µM
21     CC(C)(C)c1ccc(C(=O)/C=C(\O)C(=O)O)cc1                MIC  > 128 mg/L
22  CC(C)c1cc(C(C)C)c(C(=O)CCC(=O)O)c(C(C)C)c1                MIC  > 128 mg/L
23             COc1ccccc1C(=O)/C=C(\O)C(=O)O                MIC  > 128 mg/L
24  O=C(O)/C(O)=C/C(=O)c1cc(C2CCCCC2)ccc1C1CCCCC1                MIC       22 µM
25    O=C(O)/C(O)=C/C(=O)c1ccc(-c2ccccc2)cc1                MIC  > 128 mg/L
